- assay.info: Solubility in pure water
- Assay type: physicochemical
For each of the compounds below, state its solubility.

solubility for N=C(N)NCCCN1C(=O)N(CCCNC(=N)N)C(=O)C(Cc2ccc(Br)c(Cl)c2)(Cc2ccc(Br)c(Cl)c2)C1=O.O=C(O)C(F)(F)F.O=C(O)C(F)(F)F is < 1000 µg/mL

solubility for N=C(N)NCCCN1C(=O)N(CCCNC(=N)N)C(=O)C(Cc2cc(C(F)(F)F)cc(C(F)(F)F)c2)(Cc2cc(C(F)(F)F)cc(C(F)(F)F)c2)C1=O.O=C(O)C(F)(F)F.O=C(O)C(F)(F)F is < 1000 µg/mL

solubility for Cl.Cl.NCCCN1C(=O)N(CCCN)C(=O)C(Cc2cc(C(F)(F)F)cc(C(F)(F)F)c2)(Cc2cc(C(F)(F)F)cc(C(F)(F)F)c2)C1=O is ≤ 1000 µg/mL

----------
For each of the compounds below, state its solubility.
- assay.info: Solubility in pure water
- Assay type: physicochemical

solubility for Cl.Cl.N=C(N)NCCCN1C(=O)N(CCCNC(=N)N)C(=O)C(Cc2cc(C(F)(F)F)cc(C(F)(F)F)c2)(Cc2cc(C(F)(F)F)cc(C(F)(F)F)c2)C1=O is ≤ 1000 µg/mL

solubility for Cl.Cl.NCCCN1C(=O)N(CCCN)C(=O)C(Cc2ccc(Br)c(Cl)c2)(Cc2ccc(Br)c(Cl)c2)C1=O is ≤ 1000 µg/mL

solubility for Cl.Cl.N=C(N)NCCCN1C(=O)N(CCCNC(=N)N)C(=O)C(Cc2ccc(Br)c(Cl)c2)(Cc2ccc(Br)c(Cl)c2)C1=O is < 1000 µg/mL

solubility for NCCCN1C(=O)N(CCCN)C(=O)C(Cc2cc(C(F)(F)F)cc(C(F)(F)F)c2)(Cc2cc(C(F)(F)F)cc(C(F)(F)F)c2)C1=O.O=C(O)C(F)(F)F.O=C(O)C(F)(F)F is < 1000 µg/mL

solubility for NCCCN1C(=O)N(CCCN)C(=O)C(Cc2ccc(Br)c(Cl)c2)(Cc2ccc(Br)c(Cl)c2)C1=O.O=C(O)C(F)(F)F.O=C(O)C(F)(F)F is < 1000 µg/mL

----------
For each of the molecules below, state its selectivity ratio.
- assay.info: Selectivity index, ratio HC50 for hemolytic activity in human RBC to MIC for antibacterial activity against Staphylococcus aureus ATCC 9144
- Type: toxicity
- condition.notes: human red blood cells (erythrocytes)
# print the numeric value only

selectivity ratio for NCCCCN1C(=O)N(CCCCN)C(=O)C(Cc2cc(Br)cc(Br)c2)(Cc2cc(Br)cc(Br)c2)C1=O.O=C(O)C(F)(F)F.O=C(O)C(F)(F)F is 20

selectivity ratio for N=C(N)NCCCN1C(=O)N(CCCNC(=N)N)C(=O)C(Cc2cc(Br)cc(Br)c2)(Cc2cc(Br)cc(Br)c2)C1=O.O=C(O)C(F)(F)F.O=C(O)C(F)(F)F is 93

selectivity ratio for NCCCN1C(=O)N(CCCN)C(=O)C(Cc2cc(C(F)(F)F)cc(C(F)(F)F)c2)(Cc2cc(C(F)(F)F)cc(C(F)(F)F)c2)C1=O.O=C(O)C(F)(F)F.O=C(O)C(F)(F)F is 23

selectivity ratio for N=C(N)NCCCCN1C(=O)N(CCCCNC(=N)N)C(=O)C(Cc2cc(Br)cc(Br)c2)(Cc2ccc3ccccc3n2)C1=O.O=C(O)C(F)(F)F.O=C(O)C(F)(F)F (stereo unspecified) is 225
